The origin of these recorded values is patent US9850206B2.

Study system: S1P4 (Homo sapiens, UniProt O95977)
Sequence (O95977 1-384): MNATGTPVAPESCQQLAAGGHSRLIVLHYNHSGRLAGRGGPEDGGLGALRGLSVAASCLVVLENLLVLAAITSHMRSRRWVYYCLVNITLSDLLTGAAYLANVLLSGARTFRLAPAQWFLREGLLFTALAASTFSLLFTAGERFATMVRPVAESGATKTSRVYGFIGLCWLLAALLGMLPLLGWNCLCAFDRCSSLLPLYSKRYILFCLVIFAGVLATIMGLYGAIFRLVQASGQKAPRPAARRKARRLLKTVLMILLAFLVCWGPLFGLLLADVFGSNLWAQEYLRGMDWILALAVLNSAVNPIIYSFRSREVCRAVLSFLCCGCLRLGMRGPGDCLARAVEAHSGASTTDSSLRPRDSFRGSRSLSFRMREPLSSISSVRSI
Assay protocol: S1P receptor activity assay (calcium flux, FLIPR TETRA), S1P4
Format: cell-based
Settings: calcium flux, top concentration 10 μM; the >5 μM sentence says only 'for S1P4'; read-out: IC50 for S1P4 agonist activity
Recorded measurements of IC50, one per entry

- Molecule: "CCCCCCCCOc1cccc(C2CCCN(CCC(=O)O)C2)c1 (stereo not drawn) [Example 5]"
  IC50: "≤ 2 µM"
- Molecule: "O=C(O)CCCN1CC=C(c2ccc(OC3CCC4(CCCC4)CC3)cc2)CC1 [Example 41]"
  IC50: "2 to 5 µM"
- Molecule: "CCCCCCCCOc1ccc(C2CCCN(C3CCC(C(=O)O)CC3)C2)cc1 (stereo not drawn) [Example 26]"
  IC50: "2 to 5 µM"
- Molecule: "CC(C)(C)[C@H]1CC[C@H](Oc2cccc(C3CCCN(CCCC(=O)O)C3)c2)CC1 (stereo partly drawn) [Example 8]"
  IC50: "≤ 2 µM"
- Molecule: "CCCCCCCCOc1cnc(N2CCN(CCC(=O)O)CC2)nc1 [Example 21]"
  IC50: "≤ 2 µM"
- Molecule: "CC(C)(C)[C@H]1CC[C@H](Oc2ccc(NC3CCCN(CCC(=O)O)C3)nc2)CC1 (relative stereo) [Example 12]"
  IC50: "≤ 2 µM"
- Molecule: "CCCCCCCCOc1ccc(C2CCCN(CCCC(=O)O)C2)cc1 (stereo not drawn) [Example 2]"
  IC50: "≤ 2 µM"
- Molecule: "CC(C)(C)[C@H]1CC[C@H](Oc2ccc(C3CCN(CCCC(=O)O)CC3)cc2)CC1 [Example 48]"
  IC50: "≤ 2 µM"
- Molecule: "O=C(O)CCCN1CCC(c2ccc(OC3CCC4(CCCC4)CC3)cc2)CC1 [Example 42]"
  IC50: "2 to 5 µM"
- Molecule: "O=C(O)CCCCN1CCC(c2ccc(OC3CCC4(CCCC4)CC3)cc2)CC1 [Example 44]"
  IC50: "≤ 2 µM"
- Molecule: "CC(C)(C)[C@H]1CC[C@H](Oc2cccc(C3CCCN(CCC(=O)O)C3)c2)CC1 (stereo partly drawn) [Example 7]"
  IC50: "≤ 2 µM"
- Molecule: "CC(C)(C)[C@H]1CC[C@@H](Oc2ccc(C3CCCN(CCCC(=O)O)C3)cc2)CC1 (stereo in doubt) [Example 4]"
  IC50: "> 5 µM"
- Molecule: "CC(C)(C)[C@H]1CC[C@H](Oc2ccc(C3CCCC(N4CCC(C(=O)O)CC4)C3)cc2)CC1 (stereo partly drawn) [Example 10]"
  IC50: "> 5 µM"
- Molecule: "CC[C@H]1CC[C@H](Oc2ccc(C3CCN(CCCC(=O)O)CC3)cc2)CC1 [Example 30]"
  IC50: "≤ 2 µM"
- Molecule: "CC[C@H]1CC[C@@H](Oc2ccc(C3CCN(CCCC(=O)O)CC3)cc2)CC1 [Example 36]"
  IC50: "2 to 5 µM"
- Molecule: "CCCCCCCCOc1cccc(C2CCCN(CCCC(=O)O)C2)c1 (stereo not drawn) [Example 6]"
  IC50: "≤ 2 µM"
- Molecule: "CC(C)(C)[C@H]1CC[C@H](Oc2ccc(N3CCN(CCCC(=O)O)CC3)cc2)CC1 [Example 18]"
  IC50: "2 to 5 µM"
- Molecule: "CCCCCCCCOc1ccc(N2CCN(CCC(=O)O)CC2)nn1 [Example 20]"
  IC50: "2 to 5 µM"
- Molecule: "CC(C)(C)[C@H]1CC[C@H](Oc2ccc(C3CCN(CCCC(=O)O)C3)cc2)CC1 (stereo partly drawn) [Example 24]"
  IC50: "≤ 2 µM"
- Molecule: "CC(C)(C)[C@H]1CC[C@H](Oc2ccc(C3CCN(CCC(=O)O)CC3)cc2)CC1 [Example 46]"
  IC50: "≤ 2 µM"
- Molecule: "CC(C)(C)[C@H]1CC[C@H](Oc2ccc(C3CCN(CCC(=O)O)C3)cc2)CC1 (stereo partly drawn) [Example 23]"
  IC50: "≤ 2 µM"
- Molecule: "CC(C)(C)[C@H]1CC[C@H](Oc2ccc(N3CCN(CCC(=O)O)CC3)cc2)CC1 [Example 17]"
  IC50: "2 to 5 µM"
- Molecule: "CC[C@H]1CC[C@@H](Oc2ccc(C3CCN(CCC(=O)O)CC3)cc2)CC1 [Example 34]"
  IC50: "> 5 µM"
- Molecule: "CCCCCCCCOc1ccc(C2CCCN(CCC(=O)O)C2)cc1 (stereo not drawn) [Example 1]"
  IC50: "> 5 µM"
- Molecule: "CCCCCCCCOc1ccc(NC2CCCN(CCC(=O)O)C2)nc1 (stereo not drawn) [Example 11]"
  IC50: "> 5 µM"
- Molecule: "CC(C)(C)[C@H]1CC[C@H](Oc2ccc(N3CCN(CC45CCC(C(=O)O)(CC4)CC5)CC3)cc2)CC1 [Example 19]"
  IC50: "≤ 2 µM"
- Molecule: "CCCCCCCCOc1ccc(C2CCCC(N3CCC(C(=O)O)CC3)C2)cc1 (stereo not drawn) [Example 9]"
  IC50: "> 5 µM"
